system: HCC1599; test: drug sensitivity score (DSS), CellTiter-Blue viability (DSS (AUC-based score)); higher = stronger viability inhibition; extreme values may be limits of the assay; settings: incubation time: 72 h
MEASUREMENT_KIND: drug sensitivity score
No unit in the answer, only the number.

# count of solved cases: 2
COMPOUND	drug sensitivity score
CO[C@H]1/C=C\C=C(/C)C(=O)NC2=CC(=O)C(NCCN(C)C)=C(C[C@@H](C)C[C@H](OC)[C@H](O)[C@@H](C)/C=C(\C)[C@@H]1OC(N)=O)C2=O	10.5
C=C(c1ccc(C(=O)O)cc1)c1cc2c(cc1C)C(C)(C)CCC2(C)C	0

Prompt: May I ask what drug sensitivity score has been recorded for Cc1ccc(-n2nc(C(C)(C)C)cc2NC(=O)Nc2ccc(OCCN3CCOCC3)c3ccccc23)cc1 ?
Completion: 0

Prompt: May I ask what drug sensitivity score has been recorded for O=P1(NCCCl)OCCCN1CCCl (centres undefined) [Ifosfamide] ?
Completion: 0

Prompt: May I ask what drug sensitivity score has been recorded for NCC(=O)CCC(=O)O ?
Completion: 0

Prompt: May I ask what drug sensitivity score has been recorded for Clc1ccc(Nc2nnc(Cc3ccncc3)c3ccccc23)cc1 ?
Completion: 0

Prompt: May I ask what drug sensitivity score has been recorded for COc1cc2nccc(Oc3ccc(NC(=O)C4(C(=O)Nc5ccc(F)cc5)CC4)cc3)c2cc1OC [Cabozantinib] ?
Completion: 0

Prompt: May I ask what drug sensitivity score has been recorded for CC(=O)Nc1ccc(C(=O)Nc2ccccc2N)cc1 ?
Completion: 0

Prompt: May I ask what drug sensitivity score has been recorded for CN(C)/N=N/c1[nH]cnc1C(N)=O ?
Completion: 0
